B1: RBBP5 (parent)
chain: TGTSNTTAIKSIEFARKGSCFLIN

# Variants of: B1
# assay_procedure: protein stability index of a GFP-peptide fusion (GPS, HEK-293T) (PSI 1-6); higher = more stable;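 also: lentivirally expressed fusions sorted by FACS into six bins by GFP to DsRed ratio, PSI derived from sequencing read proportions per bin multiplied by bin number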
# conditions_used: c terminus: a fixed tail appended
Please respond with reported protein stability index for every item in the list.
One number for each entry.

INSERT INTO results (mutant_designation, measure, endpoint_value) VALUES
  ('T7P', 'protein stability index', 2.74),
  ('S4P', 'protein stability index', 2.01),
  ('F14G', 'protein stability index', 2.76),
  ('S11A', 'protein stability index', 2.18),
  ('T1R', 'protein stability index', 2.75),
  ('E13G', 'protein stability index', 2.11);

Would you mind giving protein stability index for every variant in the list below?
1. G18Y
2. F21R
3. I23K
4. K10Y
5. R16T

Reply:
2.07
3.15
3.62
3.11
2.26

Would you mind giving protein stability index for every variant in the list below?
1. G18A
2. F14Y
3. I9S
4. L22M
5. A15I
6. T3D
7. T6S
8. F21P

Reply:
1: 1.9; 2: 2.38; 3: 2.12; 4: 2.64; 5: 1.63; 6: 2.46; 7: 2.64; 8: 3.13

Would you mind giving protein stability index for every variant in the list below?
1. I9D
2. N24H
3. T7R
4. A15V
5. G2F
6. N5E
7. L22R

Reply:
[2.86, 2.35, 2.15, 1.66, 1.76, 2.57, 2.81]
